System: Target C CJ mRNA
MEASUREMENT_DESCRIPTION: Gene panel canonical junction qPCR assay, Target C
Format: cell-based
CONDITIONS_USED: Homo sapiens, larger gene panel, read-out: Target C IC50 (decrease in CJ mRNA levels)
pIC50: −log10 of the molar value. Structures can show the parent of a compound that is named as a salt.
READOUT_LABEL: pIC50

# input Identify measured pIC50 associated with Cc1cn2cc(-c3nn4c(=O)cc(N5CCNCC5)nc4s3)cc(F)c2n1 [Compound 214]
# output < 5.00

# input Identify measured pIC50 associated with Cc1cn2cc(-c3cc4ccn(C5CCNCC5)c(=O)c4s3)cc(F)c2n1 [Compound 804]
# output 6.00 to 7.00

# input Identify measured pIC50 associated with Cc1cc(-c2cc3ncn(C4CCN(C)CC4)c(=O)c3s2)cc2cn(C)nc12 [Compound 237]
# output 5.00 to 6.00

# input Identify measured pIC50 associated with Cc1cn2cc(-c3nc4sc(C5CCNCC5)cc4c(=O)[nH]3)cc(F)c2n1 [Compound 250]
# output 6.00 to 7.00

# input Identify measured pIC50 associated with Cc1cn2nc(-c3cc4ncn(C5CCNCC5)c(=O)c4s3)cc2c(C)n1 [Compound 262]
# output 6.00 to 7.00

# input Identify measured pIC50 associated with Cc1cn2cc(-c3cc4ncn(C5CCNC5)c(=O)c4s3)cc(F)c2n1 (centres unmarked) [Compound 270]
# output 6.00 to 7.00

# input Identify measured pIC50 associated with Cc1cn2cc(-n3cnc4nc(N5CCNCC5)sc4c3=O)cc(F)c2n1 [Compound 226]
# output 6.00 to 7.00

# input Identify measured pIC50 associated with Cc1cn2cc(-n3cnc4nc(N(C)C5CC(C)(C)NC(C)(C)C5)sc4c3=O)cc(F)c2n1 [Compound 227, formate]
# output < 5.00

# input Identify measured pIC50 associated with Cc1nc(-c2nc3ncn(C4CCNCC4)c(=O)c3s2)cc2cn(C)nc12 [Compound 251]
# output < 5.00

# input Identify measured pIC50 associated with Cn1cc2cc(-c3cc4ncn(C5CCNCC5)c(=O)c4s3)c(F)cc2n1 [Compound 258]
# output 5.00 to 6.00

# input Identify measured pIC50 associated with COc1cc(-c2cc3ncn(C4CCNCC4)c(=O)c3s2)cnn1 [Compound 260]
# output 5.00 to 6.00

# input Identify measured pIC50 associated with Cc1cn2cc(-c3nn4c(=O)cc(N(C)C5CC(C)(C)NC(C)(C)C5)nc4s3)cc(F)c2n1 [Compound 215]
# output 5.00 to 6.00

# input Identify measured pIC50 associated with Cc1cn2cc(-n3ccc4cc(C5CCNCC5)sc4c3=O)cc(F)c2n1 [Compound 801]
# output < 5.00

# input Identify measured pIC50 associated with Cc1cn2cc(-c3nn4c(=O)cc(N5CCN(C)C6(CC6)C5)nc4s3)cc(F)c2n1 [Compound 218]
# output 5.00 to 6.00

# input Identify measured pIC50 associated with Cc1cc(-c2nc3ncn(C4CCNCC4)c(=O)c3s2)cc2cn(C)nc12 [Compound 233]
# output 6.00 to 7.00

# input Identify measured pIC50 associated with Cc1cn2cc(-c3cc4ncn([C@H]5CCNC[C@@H]5F)c(=O)c4s3)cc(F)c2n1 (relative stereo) [Compound 272]
# output < 5.00

# input Identify measured pIC50 associated with Cc1cn2nc(-c3cc4ncn(C5CCNCC5)c(=O)c4s3)cc(C)c2n1 [Compound 238]
# output 5.00 to 6.00
